- assay.explanation: Cytotoxicity against human WI38 cells by MTT assay
- Assay type: cell-based, WI-38
- measurement.setup: Homo sapiens, WI-38; read-out: IC50
For each record, check the reported IC50: if it is below 5 µM write Condition met, else write Condition not met.

smiles.structure	discrete.label
C=C[C@H]1CN2CC[C@H]1C[C@H]2[C@H](O)c1ccnc2ccc(OC)cc12	Condition not met
C=C[C@H]1CN2CC[C@H]1C[C@H]2[C@H](O)c1cc(CC[C@@H](C)[C@H]2CC[C@H]3[C@@H]4CC[C@@H]5C[C@H](O)CC[C@]5(C)[C@H]4C[C@H](O)[C@]23C)nc2ccccc12	Condition not met
C=C[C@H]1CN2CC[C@H]1C[C@H]2[C@H](O)c1cc(CC[C@@H](C)[C@H]2CC[C@H]3[C@@H]4C[C@H](O)[C@@H]5C[C@H](O)CC[C@]5(C)[C@H]4CC[C@]23C)nc2ccc(OC)cc12	Condition met
C=C[C@H]1CN2CC[C@H]1C[C@H]2[C@H](O)c1cc(CC[C@@H](C)[C@H]2CC[C@H]3[C@@H]4[C@H](OC(C)=O)[C@H](OC(C)=O)[C@@H]5C[C@H](OC(C)=O)CC[C@]5(C)[C@H]4CC[C@]23C)nc2ccc(OC)cc12	Condition met
C=C[C@H]1CN2CC[C@H]1C[C@H]2[C@H](O)c1cc(CC[C@@H](C)[C@H]2CC[C@H]3[C@@H]4[C@H](O)[C@H](O)[C@@H]5C[C@H](O)CC[C@]5(C)[C@H]4CC[C@]23C)nc2ccc(OC)cc12	Condition not met
C=C[C@H]1CN2CC[C@H]1C[C@H]2[C@H](O)c1cc(CC[C@@H](C)[C@H]2CC[C@H]3[C@@H]4[C@H](OC(C)=O)C[C@@H]5C[C@H](OC(C)=O)CC[C@]5(C)[C@H]4C[C@H](OC(C)=O)[C@]23C)nc2ccc(OC)cc12	Condition met

Now look at this one.
### Prompt Is 5 µM strictly greater than the molecule's reported IC50? molecule: C=C[C@H]1CN2CC[C@H]1C[C@@H]2[C@@H](O)c1cc(CC[C@@H](C)[C@H]2CC[C@H]3[C@@H]4CC[C@@H]5C[C@H](OC(C)=O)CC[C@]5(C)[C@H]4C[C@H](OC(C)=O)[C@]23C)nc2ccccc12
### Response Condition met
